- System: Kallikrein-1 (Homo sapiens)
- Sequence (P06870 whole entry): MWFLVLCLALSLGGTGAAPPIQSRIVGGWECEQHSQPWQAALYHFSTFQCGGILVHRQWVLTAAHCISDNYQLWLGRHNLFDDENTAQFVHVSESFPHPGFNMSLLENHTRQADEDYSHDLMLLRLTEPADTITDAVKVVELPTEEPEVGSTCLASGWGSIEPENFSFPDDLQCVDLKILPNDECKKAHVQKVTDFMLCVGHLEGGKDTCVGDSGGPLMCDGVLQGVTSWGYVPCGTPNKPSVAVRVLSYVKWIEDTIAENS

[
  {
    "Smiles repr": "CC[C@H](C)[C@H]1NC(=O)C[C@H](Cc2cccc(CN)c2)NC(=O)[C@@H]2CCCN2C(=O)[C@@H](NC(=O)CCCCCN)CNC(=O)/C=C/[C@H](Cc2ccc(O)cc2)NC1=O",
    "Ki, µM": 1300
  }
]

====

- Organism: Homo sapiens
- Assay explanation: Selectivity ratio of Ki for Trypsin to Ki for human beta-tryptase
# reported Ratio Ki; entries follow

[
  {
    "Smiles repr": "CC[C@H](C)[C@H]1NC(=O)C[C@H](CCCNC(=N)N)NC(=O)[C@@H]2CCCN2C(=O)[C@@H](NC(C)=O)CNC(=O)/C=C/[C@H](Cc2ccc(O)cc2)NC1=O",
    "Ratio Ki": 0.8
  },
  {
    "Smiles repr": "CC[C@H](C)[C@H]1NC(=O)C[C@H](Cc2cccc(CN)c2)NC(=O)[C@@H]2CCCN2C(=O)[C@@H](NC(=O)CCCCCN)CNC(=O)/C=C/[C@H](Cc2ccc(O)cc2)NC1=O",
    "Ratio Ki": 2000
  },
  {
    "Smiles repr": "CC[C@H](C)[C@H]1NC(=O)C[C@H](CCCCN)NC(=O)[C@@H]2CCCN2C(=O)[C@@H](NC(C)=O)CNC(=O)/C=C/[C@H](Cc2ccc(O)cc2)NC1=O",
    "Ratio Ki": 0.6
  },
  {
    "Smiles repr": "CC[C@H](C)[C@H]1NC(=O)C[C@H](Cc2cccc(CN)c2)NC(=O)[C@@H]2CCCN2C(=O)[C@@H](NC(C)=O)CNC(=O)/C=C/[C@H](Cc2ccc(O)cc2)NC1=O",
    "Ratio Ki": 170
  },
  {
    "Smiles repr": "CC[C@H](C)[C@H]1NC(=O)C[C@H](CCCNC(=N)N)NC(=O)[C@@H]2CCCN2C(=O)[C@@H](NC(=O)CCCCCN)CNC(=O)/C=C/[C@H](Cc2ccc(O)cc2)NC1=O",
    "Ratio Ki": 1400
  }
]

The values you see were collected from ChEMBL document CHEMBL1926661.
